Value source: ChEMBL document CHEMBL3879881

target.entity: Inhibitor of nuclear factor kappa-B kinase subunit beta (Homo sapiens)
Sequence (O14920 whole entry): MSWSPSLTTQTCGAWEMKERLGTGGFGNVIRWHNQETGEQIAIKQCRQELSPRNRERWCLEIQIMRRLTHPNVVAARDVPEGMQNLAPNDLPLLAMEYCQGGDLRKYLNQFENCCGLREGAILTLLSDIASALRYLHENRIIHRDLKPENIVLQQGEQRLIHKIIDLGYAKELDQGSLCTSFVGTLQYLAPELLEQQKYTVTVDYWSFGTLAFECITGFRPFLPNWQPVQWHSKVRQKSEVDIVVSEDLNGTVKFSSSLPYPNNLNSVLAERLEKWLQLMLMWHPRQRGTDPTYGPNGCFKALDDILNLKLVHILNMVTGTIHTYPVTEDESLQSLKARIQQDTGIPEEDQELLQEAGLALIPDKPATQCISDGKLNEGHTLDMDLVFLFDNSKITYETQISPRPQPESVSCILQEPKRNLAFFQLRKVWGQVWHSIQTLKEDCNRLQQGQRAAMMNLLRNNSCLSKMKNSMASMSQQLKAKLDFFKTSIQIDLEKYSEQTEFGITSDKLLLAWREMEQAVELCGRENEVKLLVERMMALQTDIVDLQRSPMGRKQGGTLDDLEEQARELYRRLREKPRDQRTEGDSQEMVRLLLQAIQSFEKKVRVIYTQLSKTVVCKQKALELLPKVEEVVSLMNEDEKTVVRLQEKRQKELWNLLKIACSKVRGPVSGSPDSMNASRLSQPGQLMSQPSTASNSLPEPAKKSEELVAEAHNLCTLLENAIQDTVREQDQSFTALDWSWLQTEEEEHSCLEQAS
assay.explanation: Inhibition of human recombinant C-terminal FLAG-epitope-tagged IKK2 expressed in baculovirus using biotinylated IkappaBalpha peptide as substrate assessed as decrease in [gamma-33P]-ATP incorporation in substrate after 30 mins by scintillation counting method
pIC50: −log10 of the molar value.
readout.kind: pIC50

{"chemical.string": "NC(=O)c1nn(-c2ccc(S(=O)(=O)N3CC=CC3)cc2)c2c1CCc1ccc(N)cc1-2", "target.entity": "Inhibitor of nuclear factor kappa-B kinase subunit beta (Homo sapiens)", "test.value": "5.00 to 6.00"}
{"chemical.string": "NC(=O)c1nn(-c2cccc(O)c2)c2c1CCc1ccc(NC(=O)c3cc(N)ccc3Cl)cc1-2", "target.entity": "Inhibitor of nuclear factor kappa-B kinase subunit beta (Homo sapiens)", "test.value": "≥ 6.00"}
{"chemical.string": "CN1CC=C(c2cc(C(=O)Nc3ccc4c(c3)-c3c(c(C(N)=O)nn3-c3ccc(F)cc3)CC4)c(Cl)cn2)CC1", "target.entity": "Inhibitor of nuclear factor kappa-B kinase subunit beta (Homo sapiens)", "test.value": "≥ 6.00"}
{"chemical.string": "NC(=O)c1nn(-c2ccc(-n3cccc3)cc2)c2c1CCc1ccc(NC(=O)c3ccccc3Cl)cc1-2", "target.entity": "Inhibitor of nuclear factor kappa-B kinase subunit beta (Homo sapiens)", "test.value": "5.00 to 6.00"}
